Assignment: determine reported CC50 at 72 h for the given compounds.
assay: Cytotoxicity assay (Cell Counting Kit-8); format: cell-based, Human; details: human; UKF-NB-4 cells, 72 h treatment, 0-100 µM
One number for each entry, in µM.

O=C1Nc2ccc(Cl)cc2[C@@](C#CC2CC2)(C(F)(F)F)O1    31.9

Please state, for each entry, its recorded CC50 at 72 h.
1. CCC[C@@]1(CCc2ccccc2)CC(O)=C([C@H](CC)c2cccc(NS(=O)(=O)c3ccc(C(F)(F)F)cn3)c2)C(=O)O1
2. COc1c(-c2ccc3cc(NS(C)(=O)=O)ccc3c2)cc(-n2ccc(=O)[nH]c2=O)cc1C(C)(C)C

RESULT:
1. 89.2
2. 21.3

###

test: Cytotoxicity assay (Cell Counting Kit-8); format: cell-based, Human; details: human; HBCA cells, 72 h treatment, 0-100 µM
endpointName: CC50 at 72 h (µM)
Numbers only, in µM.

CCC[C@@]1(CCc2ccccc2)CC(O)=C([C@H](CC)c2cccc(NS(=O)(=O)c3ccc(C(F)(F)F)cn3)c2)C(=O)O1 [Tipranavir, tipranavir]    34

Please state, for each entry, its recorded CC50 at 72 h.
1. O=C1Nc2ccc(Cl)cc2[C@@](C#CC2CC2)(C(F)(F)F)O1 [Efavirenz, efavirenz]
2. COc1c(-c2ccc3cc(NS(C)(=O)=O)ccc3c2)cc(-n2ccc(=O)[nH]c2=O)cc1C(C)(C)C [Dasabuvir, dasabuvir]

RESULT:
[16.7, 26]

###

test system: WNV (Eg101); assay: microbe, parasite or virus in culture; assay type: cell-based, West Nile virus; conditions: West Nile virus, Vero, Vero cells, pretreatment 24 h, 48 h incubation, plaque assay
endpointName: EC50 (µM)
Numbers only, in µM.

COc1c(-c2ccc3cc(NS(C)(=O)=O)ccc3c2)cc(-n2ccc(=O)[nH]c2=O)cc1C(C)(C)C [Dasabuvir, dasabuvir]    18.8
O=C1Nc2ccc(Cl)cc2[C@@](C#CC2CC2)(C(F)(F)F)O1 [Efavirenz, efavirenz]    21.9

Okay, next one:
QUERY: Entry CCC[C@@]1(CCc2ccccc2)CC(O)=C([C@H](CC)c2cccc(NS(=O)(=O)c3ccc(C(F)(F)F)cn3)c2)C(=O)O1 [Tipranavir, tipranavir] : reported EC50 = ?
RESULT: 32.7

###

assay: Cytotoxicity assay (Cell Counting Kit-8); type: cell-based; conditions: African green monkey; Vero cells, 72 h treatment, 0-100 µM
endpointName: CC50 at 72 h (µM)
Give bare numbers, in µM.

COc1c(-c2ccc3cc(NS(C)(=O)=O)ccc3c2)cc(-n2ccc(=O)[nH]c2=O)cc1C(C)(C)C    102

Okay, next one:
QUERY: Entry "O=C1Nc2ccc(Cl)cc2[C@@](C#CC2CC2)(C(F)(F)F)O1" : reported CC50 at 72 h = ?
RESULT: 73.6
